Data provenance: patent US10669235B2

Assay Protocol: Pharmacokinetic measurements in rats (i.v., i.t., oral)
Format: in vivo
Measurement Setup: male, CD, rat, lung, iv; read-out: lung concentration (nM) at time 1.5 h
Structures can show the parent of a compound that is named as a salt.
Here, each record is paired with measured concentration at 1.5 h data.
Measurement Type: concentration at 1.5 h (nM)

>>> df
                                   compound  units_symbol  recorded_value
0  COC(=O)c1cc2c(cc1C)/C(=C(/Nc1ccc(C(=O)NC3CCN(C)CC3)cc1)c1ccccc1)C(=O)N2 [Example 18, formate]            nM             306
1  COC(=O)c1cc2c(cc1C)/C(=C(/Nc1ccc(C(=O)NCCN3CCNC(=O)C3)cc1)c1ccccc1)C(=O)N2            nM             174
2  COC(=O)c1ccc2c(c1)NC(=O)/C2=C(\Nc1ccc(N(C)C(=O)CN2CCN(C)CC2)cc1)c1ccccc1 [Nintedanib, reference compound]            nM            1390
3  COC(=O)c1cc2c(cc1C)/C(=C(/Nc1ccc(C(=O)NCCN3CCN(C)CC3)cc1)c1ccccc1)C(=O)N2            nM             641
4  COC(=O)c1cc2c(cc1C)/C(=C(/Nc1ccc(C(=O)NCC3CCN(C)CC3)cc1)c1ccccc1)C(=O)N2 [Example 3, formate]            nM             700
